# System Name: T1, PUF4 RNA-binding domain (Saccharomyces cerevisiae, UniProt P25339 537-888)
# T1 sequence: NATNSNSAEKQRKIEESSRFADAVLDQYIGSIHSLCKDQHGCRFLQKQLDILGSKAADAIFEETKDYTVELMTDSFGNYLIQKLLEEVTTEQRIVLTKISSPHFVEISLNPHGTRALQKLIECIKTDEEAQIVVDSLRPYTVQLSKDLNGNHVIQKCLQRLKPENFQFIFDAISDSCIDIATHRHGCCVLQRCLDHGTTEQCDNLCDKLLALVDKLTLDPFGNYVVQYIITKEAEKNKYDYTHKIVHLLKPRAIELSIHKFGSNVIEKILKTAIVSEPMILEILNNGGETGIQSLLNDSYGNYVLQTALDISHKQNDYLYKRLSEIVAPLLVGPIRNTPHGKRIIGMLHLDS
# Measurement Notes: Mg; RNA-MaP; 20 mM Na-HEPES pH 7.4, 30 mM KOAc, 0.75 mM MgCl2, 0.1% Tween-20, 5% glycerol, 0.1 mg/mL BSA, 2 mM DTT; 25 C; 0.0125-409.6 nM protein
# Experimental Setup: tags: N-His6-TEV cleaved; C-SNAP kept, Cy3B-labelled; label: tethered on chip by stalled RNA polymerase
Measurement Type: Kd (nM)
Return type: number; implicit unit nM.

Binder: Ic_S2_P4E.1_K4.1_C4.1_H4.1_A4.1_[T5A]_[A6T]_F4.1_[T8C]_[A9G]_T4.1 (ssRNA) RNA: UUUGAUUAAUAUGAUAUCGUUCUUUCUUGUAAUUCGUUCUUUCUCGAUAUCAUAUUAAUCUUU
Measurement Type: Kd
Observed Result: 649

Sure, the documented Kd for Id_ii_S4_P5E.2_K5.1_C5.2_[C-2T]_[T-1C]_H5.1_A5.1_F5.1_T5.2_[T11A]_[A12G] (ssRNA) RNA: UUUGACAACUGAUCGUUCUUUCUUCUGUAUUAUUAAGUUCUUUCUCGAUCAGUUGUCUUU is 34.5
